Tested on: LNCaP
assay-text: Induction of apoptosis in human LNCAP cells assessed as PARP cleavage at 10 uM after 24 hrs by Western blot analysis
Type: functional, cell-based
Active and inactive are the calls of the source. No cut-off for these calls is given here.
Answer with one of the outcomes 1 for active, -1 for inactive

Previously resolved entries follow.
> print(dat)
                           structure.smiles  assigned.class
1  O=C(O)CCCSc1nc2c(Br)c(Br)c(Br)c(Br)c2[nH]1              -1
2          Cn1c(NCCN)nc2c(I)c(I)c(I)c(I)c21              -1

Give the logged outcome of this assay for the following compound: NCCNc1nc2c(Br)c(Br)c(Br)c(Br)c2[nH]1
1

How about CN(C)c1nc2c(Br)c(Br)c(Br)c(Br)c2n1CC(=O)O ?
-1

Moving on to NCCCCNc1nc2c(Br)c(Br)c(Br)c(Br)c2[nH]1
-1

Same question, Cn1c(NCCN)nc2c(Br)c(Br)c(Br)c(Br)c21 this time
-1
